Values compiled from PubChem BioAssay (NCI).

Test system: SK-MEL-2 melanoma
procedure-summary: NCI tumour cell line growth inhibition, 48 h
This listing pairs compounds with measured GI50.
readout-type: GI50

>>> value("COc1ccc2c(c1)C(=O)c1c-2n(CCCCl)c(=O)c2cc(OC)c(OC)cc12")
"> 100 µM"
>>> value("COc1ccc(CCn2c3c(c4c(O)cccc42)C(=O)c2ccccc2-3)cc1OC")
"24.1 µM"
>>> value("O=S1CCN(Cc2ccc(-c3ccc4ncnc(Nc5ccc(OCc6ccccc6)c(Cl)c5)c4c3)o2)CC1")
"7.46 µM"
>>> value("Cn1ncc2c(Sc3ccc(Cl)cc3)ncnc21")
"> 100 µM"
>>> value("CCCCCCCCc1cc[n+](CC(=O)c2ccc(Br)cc2)cc1")
"1.61 µM"

---

System: MCF7 breast
procedure-summary: NCI tumour cell line growth inhibition, 48 h
This listing pairs compounds with measured TGI.
readout-type: TGI (µM)

>>> value("C=C(C)C(=O)Oc1ccc(N=Nc2ccc(C)cc2)ccc1=O")
14.7
>>> value("CCCCCCCCc1cc[n+](CC(=O)c2ccc(Br)cc2)cc1")
2.84
>>> value("O=C1C=CC(=O)c2c(O)c(NCCCN3CCOCC3)c(Cl)c(O)c21")
3.31
>>> value("CC(=O)c1sc2c(c1OC(=O)c1ccc(Cl)cc1Cl)c(=O)n(-c1ccccc1)c(=S)n2-c1ccccc1")
47.1
>>> value("NC(N)=NS(=O)(=O)c1ccc(Nc2c3ccccc3nc3c(C(=O)NNCCO)cccc23)cc1")
0.241
>>> value("COc1cc(-c2n[nH]nc2-c2ccc3c(c2)OCCO3)cc(OC)c1OC")
37.9

---

System: OVCAR-5 ovarian
procedure-summary: NCI tumour cell line growth inhibition, 48 h
This listing pairs molecules with measured GI50.
readout-type: GI50

>>> value("C=C1C(=O)O[C@H]2[C@H]1CC/C(COC(=O)CCCCCCC(=O)OC/C1=C/CC[C@@]3(C)O[C@H]3[C@H]3OC(=O)C(=C)[C@@H]3CC1)=C\\CC[C@@]1(C)O[C@@H]21")
"2.54 µM"
>>> value("O=S1CCN(Cc2ccc(-c3ccc4ncnc(Nc5ccc(OCc6ccccc6)c(Cl)c5)c4c3)o2)CC1")
"12.1 µM"
>>> value("Cn1ncc2c(Sc3ccc(Cl)cc3)ncnc21")
"> 100 µM"
>>> value("CCCCNCC(O)c1cc2c(Cl)cc(Cl)cc2c2cc(C(F)(F)F)ccc12 (centres undefined)")
"1.56 µM"
>>> value("COc1ccc(CCn2c3c(c4c(O)cccc42)C(=O)c2ccccc2-3)cc1OC")
"> 42 µM"
>>> value("Cn1cc(-c2nc3c(F)cc4[nH]ncc4c3c3c2CCCC3)c(C(F)(F)F)n1")
"19.2 µM"
>>> value("C=Cc1ccccc1 (tested in a mixture with another compound)")
"> 75 µg/mL"
>>> value("CCCCCCCCc1ccc(OCCOCC[N+](C)(C)CC)cc1 (tested in a mixture with another compound)")
"7.5 µM"
>>> value("O=C(CCl)Nc1ccc2c(c1)C(=O)c1ccccc1C2=O")
"2.5 µM"

---

Tested on: M14 melanoma
procedure-summary: NCI tumour cell line growth inhibition, 48 h; in the data active = GI50 below about 0.43 µM; inactive = the rest
Outcome codes: 1 (yes) = active, 0 (no) = inactive

>>> class("COc1cc(/C=N/Nc2ncnc3[nH]ncc23)ccc1O")
"0 (no)"
>>> class("COC1=CC(c2ccc[nH]2)=N/C1=C\\c1[nH]c(C)c(C(=O)CCCCC(=O)NCc2ccccc2)c1C")
"0 (no)"
>>> class("NCCOc1ncccc1/C=C1\\c2ccccc2-c2ccc(F)cc21")
"0 (no)"
>>> class("Cc1cc2c([nH]1)CSc1cc(S(=O)(=O)c3ccccc3)c(=O)[nH]c1-2")
"1 (yes)"
>>> class("COc1ccc(/C=C/c2nnc(/C=C/c3ccc(OC)c(OC)c3)o2)cc1OC")
"0 (no)"
>>> class("Nc1cc2c([nH]c[n+]2CC#CCCl)c(SCC#CCCl)n1")
"0 (no)"

---

This listing pairs molecules with measured TGI.
System: SK-MEL-2 melanoma
procedure-summary: NCI tumour cell line growth inhibition, 48 h
readout-type: TGI

>>> value("NC(=O)SCC(=O)Nc1ccc2cccc3c2c1CC3")
"47.1 µM"
>>> value("Cc1cc(C)c(-c2cc(O)c(-c3c(C)cc(C)cc3C)cc2O)c(C)c1")
"> 100 µM"
>>> value("COc1ccc2c(c1)CC[C@@H]1[C@@H]2CC[C@]2(C)C(=O)/C(=C/c3ccc(C#N)cc3)C[C@@H]12")
"> 100 µM"

---

System: A498 renal
procedure-summary: NCI tumour cell line growth inhibition, 48 h
readout-type: TGI

>>> value("N#Cc1nn(C(N)=O)c(N)c1C#N")
"> 100 µM"
>>> value("CN(C)CCn1nc2c3c(c(C(=O)NCCCN(C)CCCNC(=O)c4ccc5c6c(nn5CCN(C)C)-c5ccccc5Nc46)ccc31)Nc1ccccc1-2")
"0.623 µM"
>>> value("C=CN1CCN(c2ccccc2)P1(=O)Oc1ccccc1 (stereo not given)")
"> 100 µM"
>>> value("COC(OC)(c1ccccc1)C(Br)Br")
"> 100 µM"
>>> value("COc1cc(-c2nc3ccccc3s2)ccc1OCCCCCOc1cc2c(cc1OC)C(=O)N1CCC[C@H]1C=N2")
"0.358 µM"

---

Tested on: SF-295 CNS
procedure-summary: NCI tumour cell line growth inhibition, 48 h
readout-type: TGI

>>> value("CN(C)CC1CCC(=C2CCCC2)C1=O (stereo unspecified)")
"> 100 µM"
>>> value("OCCN1c2ccccc2Sc2ccccc21")
"> 10 µM"
>>> value("C=Cc1ccccc1 (tested in a mixture with another compound)")
"> 75 µg/mL"
>>> value("COc1cc(Nc2cnc3cc(N)ccc3n2)cc(OC)c1OC")
"> 100 µM"
>>> value("O=C(NCCc1[nH]nc2c1C(=O)C=C(Nc1ccccc1)C2=O)OCc1ccccc1")
"> 100 µM"
>>> value("Nc1ncnc2c1ncn2C1OC(CSCc2ccc(Cl)cc2)C(O)C1O (stereo unspecified)")
"> 100 µM"

---

This listing pairs compounds with measured TGI.
Tested on: OVCAR-5 ovarian
procedure-summary: NCI tumour cell line growth inhibition, 48 h
readout-type: TGI

>>> value("CCOc1nc(OCC)nc(-c2cccn2-c2ccccc2)n1")
"> 100 µM"
>>> value("COc1ccc(/C=C/c2nnc(/C=C/c3ccc(OC)c(OC)c3)o2)cc1OC")
"53.8 µM"
>>> value("Cc1cc2c([nH]1)CSc1cc(S(=O)(=O)c3ccccc3)c(=O)[nH]c1-2")
"> 100 µM"
>>> value("Cn1ncc2c(Sc3ccc(Cl)cc3)ncnc21")
"> 100 µM"
>>> value("COc1cc(/C=N\\O)cc(/C=N/O)c1O")
"> 100 µM"
>>> value("O=C(OC1CC(n2cc(F)c(=O)[nH]c2=O)OC1CSC(=O)c1ccccc1)c1ccccc1 (stereo unspecified)")
"> 100 µM"
>>> value("C=C(C)C(=O)Oc1ccc(N=Nc2ccc(C)cc2)ccc1=O")
"21.8 µM"
>>> value("COc1ccc(C2N(c3ccc(F)c([N+](=O)[O-])c3)C(=O)N3C(c4ccc(OC)cc4)N(c4ccc(F)c([N+](=O)[O-])c4)C(=O)N23)cc1 (stereo unspecified)")
"> 100 µM"
>>> value("C/C=C/[C@@H]1[C@H]2C(=O)[C@]3(Cl)[C@@H](/C=C/C)[C@@H]3C(=O)[C@@]12Cl")
"> 100 µM"
>>> value("N#CCN1c2ccccc2CCC1Cl (stereo unspecified)")
"> 10 µM"
>>> value("NC1(C(=O)O)CCCC1C(=O)O (stereo unspecified)")
"> 100 µM"

---

System: TK-10 renal
procedure-summary: NCI tumour cell line growth inhibition, 48 h
readout-type: TGI

>>> value("N#CCCN(CCCN(C(=O)N(c1ccccc1)c1ccccc1)c1ccccc1)C(=O)Nc1ccccc1")
"> 100 µM"
>>> value("C[n+]1c(-c2ccccc2)cc2/c(=C\\c3ccccc3)c3ccccc3n21")
"14.2 µM"
>>> value("O=C(N/S(=N/S(=O)(=O)c1ccc(Br)cc1)C(Cl)(Cl)Cl)c1ccccc1 (stereo not drawn)")
"> 100 µM"
>>> value("CCOC(=O)/C=C(\\C(=O)OCC)n1ccc(=O)n(Cc2cnnn2COCCOC(C)=O)c1=O")
"12.6 µM"
>>> value("OC1CCN(c2c3ccccc3nc3ccccc23)CC1")
"22.1 µM"
>>> value("N#C/C(=N/Nc1nc[nH]c1C(N)=O)C(=O)Nc1ccccc1")
"> 100 µM"
>>> value("COc1ccc(OC)c(NC(=O)C2=C(C)NC(C)=C(C(=O)Nc3cc(OC)ccc3OC)C2c2ccco2)c1")
"> 100 µM"
>>> value("CN(C)CCn1nc2c3c(c(C(=O)NCCCN(C)CCCNC(=O)c4ccc5c6c(nn5CCN(C)C)-c5ccccc5Nc46)ccc31)Nc1ccccc1-2")
"3.32 µM"
>>> value("Cc1ccc(-c2c(C#N)[n+](=O)c3cc(Cl)c(Cl)cc3n2[O-])cc1")
"32.9 µM"
>>> value("O=C1Cc2c([nH]c3ccccc23)C2(CC3CCCCN13)OCCO2 (stereo not drawn)")
"> 100 µM"
>>> value("N#C/C(=C\\c1cc(F)cc(F)c1)c1ccccn1")
"> 100 µM"
>>> value("CC(C)C1CNC2N1C(=O)C2(C)OCc1ccccc1 (stereo not drawn)")
"> 100 µM"
>>> value("CCCCNc1nc2nc[nH]c2c(=O)[nH]1")
"> 100 µM"
>>> value("COc1cccc2c1-c1ccccc1[C@H](Nc1ccccc1)[C@@]2(C)O")
"22.1 µM"
>>> value("CS(=O)(=O)N1CC(CI)c2ccc(O)cc21 (stereo not drawn)")
"7.3 µM"
>>> value("COCN1C(=O)C2CC(/C=C/C(N)=O)=CN2C(=O)c2ccccc21 (stereo not drawn)")
"> 100 µM"
>>> value("COC1=CC(c2ccc[nH]2)=N/C1=C\\c1[nH]c(C)c(C(=O)CCCCC(=O)NCc2ccccc2)c1C")
"4.63 µM"
>>> value("Cc1ccc(NC(=O)OCC(COc2ccc(Cl)cc2)OC(=O)Nc2ccc(C)cc2)cc1 (stereo not drawn)")
"96.9 µM"
>>> value("OCCN1c2ccccc2Sc2ccccc21")
"> 10 µM"
>>> value("O=C(O)CC(O)(c1ccccc1C(=O)O)c1cccc2ccccc12 (stereo not drawn)")
"> 100 µM"
>>> value("NC(N)=N/N=C(/CC1OC(=O)c2ccccc21)c1ccc2ccccc2c1 (stereo not drawn)")
"35 µM"
>>> value("N=c1oc2c(O)c(O)ccc2cc1C(N)=O")
"> 100 µM"
>>> value("N#CCCOc1cccc(C2(N3CCCCC3)CCCCC2)c1")
"> 100 µM"
>>> value("COC(=O)CCCC(=O)NC1=C(Nc2ccc(OC)cc2)C(=O)c2ccccc2C1=O")
"> 100 µM"
>>> value("C/C=C/[C@@H]1[C@H]2C(=O)[C@]3(Cl)[C@@H](/C=C/C)[C@@H]3C(=O)[C@@]12Cl")
"> 100 µM"
>>> value("OCc1nnn2c1CCC2")
"> 100 µM"
>>> value("CC1=CN(c2ccccc2)S2=C1c1sc3c(c1N2c1ccc(Br)cc1)CCCC3 (stereo not drawn)")
"> 100 µM"
>>> value("CCC12CCCN3CCc4c(n(c5ccccc45)C(O)(C(=O)OC)C1)C32 (stereo not drawn)")
"> 100 µM"
>>> value("CC(C)C(=O)OCC1CCCN2CCCCC12 (stereo not drawn)")
"> 100 µM"
>>> value("CC(=O)N1CCc2[nH]c3ccccc3c2CC1")
"> 100 µM"
>>> value("COc1cc(/C=N/Nc2ncnc3[nH]ncc23)ccc1O")
"> 22.1 µM"
>>> value("COc1ccc(NCc2cc(OC)c(OC)c(OC)c2)cc1")
"> 100 µM"
>>> value("COc1cccc(C2c3cc4c(cc3OC(NNc3ccccc3)C2C)OCO4)c1O (stereo not drawn)")
"17.3 µM"
>>> value("NC1(C(=O)O)CCCC1C(=O)O (stereo not drawn)")
"> 100 µM"
>>> value("Oc1ccc(-c2nn3c(CCCCCCCCc4nnc5sc(-c6ccc(O)cc6)nn45)nnc3s2)cc1")
"> 100 µM"
>>> value("COc1ccc(C2CC(c3cc(Cl)c(C)cc3O)=NN2c2ccc(S(N)(=O)=O)cc2)cc1OC (stereo not drawn)")
"18.4 µM"
>>> value("CCN(Cc1ccncc1)c1ccc(CO)c(Cl)c1")
"0.34 µM"
>>> value("NS(=O)(=O)N(c1cc(C(F)(F)F)cc(C(F)(F)F)c1)C1CCN(Cc2ccc(F)cc2)CC1")
"25.4 µM"
>>> value("O=C(CCl)Nc1ccc2c(c1)C(=O)c1ccccc1C2=O")
"3.72 µM"
>>> value("FC(F)(F)c1ccc(-c2cnc(Cl)nc2NC2CCCCCC2)cc1")
"> 100 µM"
>>> value("O=C(CCCn1cnc([N+](=O)[O-])n1)NCCCn1ccnc1[N+](=O)[O-]")
"> 100 µM"
>>> value("COc1cc(C(=O)/C=C/c2ccc(OCCCCCC[P+](c3ccccc3)(c3ccccc3)c3ccccc3)cc2)cc(OC)c1OC")
"2.81 µM"
>>> value("COC(=O)C(C(=O)C(=O)Nc1nc2ccc([N+](=O)[O-])cc2s1)c1nc2ccc(Cl)cc2[nH]c1=O (stereo not drawn)")
"> 100 µM"
